Read-out: CYP2C9 (gene 1559)
test: LTEA_HepaRG_CYP2C9: Life Technologies and Expression Analysis (LTEA) Assay for CYP2C9 using HepaRG (AID 2283484)
assay conditions: mRNA level, 48 h; actives raise or lower the signal
The source made the active and inactive calls. How the source made its calls: active means hit-call score of the fitted dose curve at least 0.9, where 1 is the maximum; inactive means score below 0.9.
readout name: AC50

>>> recorded_value("Clc1ccccc1-c1nnc(-c2ccccc2Cl)nn1")
"inactive"
>>> recorded_value("CCC(C)Nc1c([N+](=O)[O-])cc(C(C)(C)C)cc1[N+](=O)[O-] (stereo unspecified)")
"inactive"
>>> recorded_value("CCN(CC)C(=O)SCc1ccc(Cl)cc1")
"inactive"
>>> recorded_value("CNC(=O)CSP(=S)(OC)OC")
"inactive"
>>> recorded_value("CC(C)(C)C(O)C(Oc1ccc(Cl)cc1)n1cncn1 (stereo unspecified)")
"inactive"
>>> recorded_value("O=S1OCC2C(CO1)C1(Cl)C(Cl)=C(Cl)C2(Cl)C1(Cl)Cl (stereo unspecified)")
"82.4 µM (active)"
>>> recorded_value("CCCN(CCOc1c(Cl)cc(Cl)cc1Cl)C(=O)n1ccnc1")
"31.9 µM (active)"
>>> recorded_value("CCCN(CCC)c1c([N+](=O)[O-])cc(C(F)(F)F)cc1[N+](=O)[O-]")
"inactive"
>>> recorded_value("CN1CSC(=S)N(C)C1")
"inactive"
>>> recorded_value("CCOC1Oc2ccc(OS(C)(=O)=O)cc2C1(C)C (stereo unspecified)")
"82 µM (active)"
>>> recorded_value("O=C(NC(=O)c1c(F)cccc1F)Nc1ccc(OC(F)(F)C(F)OC(F)(F)F)c(Cl)c1 (stereo unspecified)")
"inactive"
>>> recorded_value("CC(C)OC(=O)Nc1cccc(Cl)c1")
"inactive"
>>> recorded_value("CNC(=O)/C=C(\\C)OP(=O)(OC)OC")
"inactive"
>>> recorded_value("O=[N+]([O-])/N=C1\\NCCN1Cc1ccc(Cl)nc1")
"38.1 µM (active)"
>>> recorded_value("O=C(O)COc1ccc(Cl)cc1Cl")
"inactive"
>>> recorded_value("COP(=S)(OC)Oc1ccc(SC)c(C)c1")
"inactive"
>>> recorded_value("CC(C)N(C(=O)COc1nnc(C(F)(F)F)s1)c1ccc(F)cc1")
"inactive"
>>> recorded_value("C[C@H]1[C@H](c2ccc(Cl)cc2)SC(=O)N1C(=O)NC1CCCCC1")
"78.6 µM (active)"
>>> recorded_value("CNC(=O)Oc1cccc(N=CN(C)C)c1")
"inactive"
>>> recorded_value("CCc1ccc(C(=O)NN(C(=O)c2cc(C)cc(C)c2)C(C)(C)C)cc1")
"inactive"
>>> recorded_value("COP(=S)(OC)Oc1ccc([N+](=O)[O-])cc1")
"inactive"

* * *

Read-out: Pselectin, SELP (gene 6403)
test: BSK_4H_Pselectin: BioMAP Diversity Plus: 4H Assay for Pselectin Biomarker Activity (AID 2283026)
assay conditions: primary human endothelial cells (HUVEC); actives raise or lower the signal
The source made the active and inactive calls. How the source made its calls: active means hit-call score of the fitted dose curve at least 0.9, where 1 is the maximum; inactive means score below 0.9.
Possible outcomes: active, inactive

>>> class_name("C[C@H]1[C@H](c2ccc(Cl)cc2)SC(=O)N1C(=O)NC1CCCCC1")
"inactive"
>>> class_name("CCOCN(C(=O)CCl)c1c(C)cccc1CC")
"active"
>>> class_name("COP(=S)(OC)Oc1ccc(SC)c(C)c1")
"inactive"
>>> class_name("CC(C)(C)C(O)/C(=C\\c1ccc(Cl)cc1Cl)n1cncn1 (stereo unspecified)")
"active"
>>> class_name("CCC(C)Nc1c([N+](=O)[O-])cc(C(C)(C)C)cc1[N+](=O)[O-] (stereo unspecified)")
"active"
>>> class_name("O=C(NC(=O)c1c(F)cccc1F)Nc1ccc(OC(F)(F)C(F)OC(F)(F)F)c(Cl)c1 (stereo unspecified)")
"inactive"
>>> class_name("CN1CSC(=S)N(C)C1")
"active"
>>> class_name("Oc1ccc(Cl)cc1Cc1ccccc1")
"active"
>>> class_name("Cc1cc(C)nc(NC(=O)NS(=O)(=O)c2ccccc2C(=O)OC2COC2)n1")
"inactive"
>>> class_name("O=C(O)CCCOc1ccc(Cl)cc1Cl")
"inactive"
>>> class_name("O=C(Nc1ccccc1)Nc1cnns1")
"inactive"

* * *

Read-out: Cytochrome P450 (CYP1A1), CYP1A1 (gene 1543)
test: LTEA_HepaRG_CYP1A1: Life Technologies and Expression Analysis (LTEA) Assay for Cytochrome P450 (CYP1A1) using HepaRG (AID 2283454)
assay conditions: mRNA level, 48 h; actives raise or lower the signal
Calls of active or inactive are those of the source. Rule for the calls: active = hit-call score of the fitted dose curve at least 0.9, where 1 is the maximum; inactive = score below 0.9.
readout name: AC50

>>> recorded_value("C#CCN1C(=O)COc2cc(F)c(N3C(=O)C4=C(CCCC4)C3=O)cc21")
"65.6 µM (active)"
>>> recorded_value("COP(=S)(OC)Oc1ccc([N+](=O)[O-])cc1")
"44.2 µM (active)"
>>> recorded_value("CCCN(CCOc1c(Cl)cc(Cl)cc1Cl)C(=O)n1ccnc1")
"2.56 µM (active)"

* * *

test: Tanguay_ZF_120hpf_JAW_legacy: (Legacy) Oregon State University Tanguay Lab 120 Hour Post-fertilization zebrafish Assay for Jaw Malformation (AID 2283638)
Method: Tanguay_ZF_120hpf_legacy is a whole embryo, multiplexed endpoint assay using zebrafish larvae exposed for 120 hours post fertilization on a 96-well plate.Tanguay_ZF_120hpf_JAW_legacy is one of one assay component(s) measured or calculated from the Tanguay_ZF_120hpf_legacy assay. […] This assay endpoint, Tanguay_ZF_120hpf_JAW_legacy, was analyzed in the positive analysis fitting direction relative to DMSO as the negative control and baseline of activity. […]
Inconclusive results are not listed. The source made the active and inactive calls. Rule for the calls: active = hit-call score of the fitted dose curve at least 0.9, where 1 is the maximum; inconclusive = response in the unintended direction; inactive = score below 0.9.
readout name: outcome

>>> recorded_value("C[C@H]1[C@H](c2ccc(Cl)cc2)SC(=O)N1C(=O)NC1CCCCC1")
"inactive"
>>> recorded_value("Clc1ccccc1-c1nnc(-c2ccccc2Cl)nn1")
"inactive"
>>> recorded_value("O=C1c2ccccc2C(=O)N1SC(Cl)(Cl)Cl")
"inactive"
>>> recorded_value("O=C(NC(=O)c1c(F)cccc1F)Nc1ccc(OC(F)(F)C(F)OC(F)(F)F)c(Cl)c1 (stereo unspecified)")
"inactive"
>>> recorded_value("O=C(O)C(F)(F)C(F)(F)C(F)(F)C(F)(F)C(F)(F)C(F)(F)C(F)(F)F")
"inactive"
>>> recorded_value("CCN(CC)C(=O)SCc1ccc(Cl)cc1")
"inactive"
>>> recorded_value("CNC(=O)Oc1ccccc1OC(C)C")
"inactive"
>>> recorded_value("C#CCN1C(=O)COc2cc(F)c(N3C(=O)C4=C(CCCC4)C3=O)cc21")
"inactive"
>>> recorded_value("O=[N+]([O-])c1c(Cl)c(Cl)c(Cl)c(Cl)c1Cl")
"inactive"
>>> recorded_value("N#CN")
"inactive"
>>> recorded_value("CCC(C)Nc1c([N+](=O)[O-])cc(C(C)(C)C)cc1[N+](=O)[O-] (stereo unspecified)")
"inactive"

* * *

Read-out: Pyruvate Dehydrogenase Kinase 4 (PDK4), PDK4 (gene 5166)
test: LTEA_HepaRG_PDK4: Life Technologies and Expression Analysis (LTEA) Assay for Pyruvate Dehydrogenase Kinase 4 (PDK4) using HepaRG (AID 2283525)
assay conditions: mRNA level, 48 h; actives raise or lower the signal
Activity calls are given as the source filed them. The calls were made as follows: active = hit-call score of the fitted dose curve at least 0.9, where 1 is the maximum; inactive = score below 0.9.
Possible outcomes: yes (active), no (inactive)

>>> class_name("CC1(C)C(C=C(Cl)Cl)C1C(=O)OC(C#N)c1ccc(F)c(Oc2ccccc2)c1 (configuration not stated)")
"yes"
>>> class_name("O=C(O)COc1ccc(Cl)cc1Cl")
"yes"
>>> class_name("CCC(C)(NC(=O)c1cc(Cl)c(C)c(Cl)c1)C(=O)CCl (configuration not stated)")
"no"
>>> class_name("O=C(NC(=O)c1c(F)cccc1F)Nc1ccc(OC(F)(F)C(F)OC(F)(F)F)c(Cl)c1 (configuration not stated)")
"no"
>>> class_name("C#CCN1C(=O)COc2cc(F)c(N3C(=O)C4=C(CCCC4)C3=O)cc21")
"no"
>>> class_name("CNC(=O)CSP(=S)(OC)OC")
"no"
>>> class_name("CCOC1Oc2ccc(OS(C)(=O)=O)cc2C1(C)C (configuration not stated)")
"yes"
>>> class_name("ClC1C(Cl)C(Cl)C(Cl)C(Cl)C1Cl (configuration not stated)")
"no"
>>> class_name("CNC(=O)/C=C(\\C)OP(=O)(OC)OC")
"yes"
>>> class_name("O=C(O)CCCOc1ccc(Cl)cc1Cl")
"yes"
>>> class_name("O=C1c2ccccc2C(=O)N1SC(Cl)(Cl)Cl")
"no"
>>> class_name("CC(C)N(C(=O)COc1nnc(C(F)(F)F)s1)c1ccc(F)cc1")
"no"

* * *

test: ATG_AP_1_CIS: Attagene CIS-FACTORIAL HepG2 Assay for human Activator Protein 1 (AP-1) (AID 2282931)
assay conditions: HepG2 Attagene cis-factorial AP-1 reporter mRNA; actives raise or lower the signal
Calls of active or inactive are those of the source. The calls were made as follows: active = hit-call score of the fitted dose curve at least 0.9, where 1 is the maximum; inactive = score below 0.9.
Possible outcomes: active, inactive

>>> class_name("COP(=S)(OC)Oc1ccc([N+](=O)[O-])cc1")
"inactive"
>>> class_name("C#CCN1C(=O)COc2cc(F)c(N3C(=O)C4=C(CCCC4)C3=O)cc21")
"inactive"
>>> class_name("N#CN")
"inactive"
>>> class_name("COc1nn(CSP(=S)(OC)OC)c(=O)s1")
"inactive"
>>> class_name("CNC(=O)Oc1ccccc1OC(C)C")
"inactive"
>>> class_name("C[C@H]1[C@H](c2ccc(Cl)cc2)SC(=O)N1C(=O)NC1CCCCC1")
"active"
>>> class_name("CC1(C)C(C=C(Cl)Cl)C1C(=O)OC(C#N)c1ccc(F)c(Oc2ccccc2)c1 (configuration not stated)")
"inactive"
>>> class_name("Cc1[nH]c(=O)n(C(C)(C)C)c(=O)c1Cl")
"inactive"
>>> class_name("O=C(O)COc1ccc(Cl)cc1Cl")
"inactive"
>>> class_name("CCCN(CCC)c1c([N+](=O)[O-])cc(C(F)(F)F)cc1[N+](=O)[O-]")
"inactive"
>>> class_name("CC(C)(C)C(O)/C(=C\\c1ccc(Cl)cc1Cl)n1cncn1 (configuration not stated)")
"inactive"
>>> class_name("O=[N+]([O-])c1c(Cl)c(Cl)c(Cl)c(Cl)c1Cl")
"inactive"
